Provide the reported IC50 of each item.
# measurement target: MLL1-WDR5 protein-protein interaction (Homo sapiens (Human), UniProt P61964)
# run description: WDR5 TR-FRET assay of inhibition against MLL1-WDR5 protein-protein interaction
# Format: binding
# experimental parameters: WDR5 TR-FRET, 5 nM WDR5 protein, 10 nM peptide; read-out: MLL1-WDR5 PPI inhibitory activity
Record the value in nM, omitting the unit from your answer.

What value of IC50 has been reported for the following molecule? `CN1CCN(c2ccc(-n3cc(C(=O)NCCCN4CCOCC4)nn3)cc2NC(=O)c2cc(Cl)cc(Cl)c2)CC1` 384

Can you handle Cc1c(F)c(N)cc(C(=O)Nc2cc(-n3cc(C(=O)N(C)CCCO)nn3)ccc2N2CCN(C)CC2)c1Cl [HYBI_019A] next? 17.1

Try `COc1ccc(COC(=O)c2cn(-c3ccc(N4CCN(C)CC4)c(NC(=O)c4cc(N)c(F)c(C)c4Cl)c3)nn2)cc1` next. 9.62

Request: `Cc1c(F)c(N)cc(C(=O)Nc2cc(-n3cc(C(=O)NCCCN4CCOCC4)nn3)ccc2N2CCN(C)[C@@H](C)C2)c1Cl` 8.23

And what about the molecule `Cc1c(F)c(N)cc(C(=O)Nc2cc(-n3cc(C(=O)NCCCN4CCOCC4)nn3)c(F)cc2N2C[C@@H](C)N(C)[C@@H](C)C2)c1Cl` ? 5.24

# iterate: `CN1CCN(c2ccc(-n3cc(C(=O)NCCCN4CCOCC4)nn3)cc2NC(=O)c2cc(O)cc(F)c2F)CC1` 466

Now try `Cc1c(F)c(N)cc(C(=O)Nc2cc(-n3cc(C(=O)OCC4CCN(C)CC4)nn3)ccc2N2CCN(C)CC2)c1Cl` . 20.6

Try the molecule `Cc1c(F)c(N)cc(C(=O)Nc2cc(-n3cc(C(=O)OCC(C)C)nn3)ccc2N2CCN(C)CC2)c1Cl` 15.6

Let us now turn to `Cc1c(F)c(N)cc(C(=O)Nc2cc(-n3cc(C(=O)NC4CCOCC4)nn3)c(F)cc2N2C[C@@H](C)N(C)[C@@H](C)C2)c1Cl` 3.99

Ok, now `Cc1c(F)c(N)cc(C(=O)Nc2cc(-n3cc(C(=O)NC4CCCCC4)nn3)c(F)cc2N2C[C@@H](C)N(C)[C@@H](C)C2)c1Cl` 3.86

Do the same for `Cc1c(F)c(N)cc(C(=O)Nc2cc(-n3cc(C(=O)N(C)CCCN4CCOCC4)nn3)ccc2N2CCN(C)CC2)c1Cl` please 20.4

Quick one: `Cc1c(F)c(N)cc(C(=O)Nc2cc(-n3cc(C(=O)NCC4CCCCC4)nn3)c(F)cc2N2C[C@@H](C)N(C)[C@@H](C)C2)c1Cl` 3

# repeat for `Cc1c(F)c(N)cc(C(=O)Nc2cc(-n3cc(C(=O)NCCCN4CCOCC4)nn3)ccc2N2CCCN(C)CC2)c1Cl` 62.3

What about `Cc1c(F)ccc(C(=O)Nc2cc(-n3cc(C(=O)NCCCN4CCOCC4)nn3)ccc2N2CCN(C)CC2)c1Cl` ? 185
